Tested on: EKVX NSCLC
PROTOCOL_SUMMARY: NCI-60 one-dose screen, 48 h (100 = growth as untreated, 0 = no growth, -100 = all killed)
CONDITION_NOTES: 10 µM unless noted
This is part of a sample that, as a whole, favours compounds with a hit. Of some 83,000 tested, about 20% had one in any assay.
Collected growth values appear next to each entry.
Your answer should be a plain number; it is taken to be in %.

Solved cases (3 shown):
COMPOUND	UNITS	growth
CC[C@@H]1OC(=O)[C@H](C)[C@@H](O[C@H]2C[C@@](C)(OC)[C@@H](O)[C@H](C)O2)[C@H](C)[C@@H](O[C@@H]2O[C@H](C)C[C@H](N(C)C)[C@H]2O)[C@](C)(O)C[C@@H](C)[C@@H]2N[C@@H](COCCOC)O[C@H]([C@H]2C)[C@]1(C)O	%	102
CO[C@H]1/C=C/O[C@@]2(C)Oc3c(C)c(O)c4c(O)c(c(/C=N/N5C(C)CN(Cc6ccccc6)CC5C)c(O)c4c3C2=O)NC(=O)/C(C)=C\C=C\[C@H](C)[C@H](O)[C@@H](C)[C@@H](O)[C@@H](C)[C@H](OC(C)=O)[C@@H]1C (some centres undefined)	%	64.7
Cc1ccc(NC(=O)COC(=O)c2ccc(S(=O)(=O)N3CCCCCC3)cc2)cc1	%	111

Now take the following compound into account.
Data request, read-out growth, for CCCCCCCC1(C)NC(=O)NC1=O (centres undefined)
105
